# PROCEDURE_SUMMARY: Multicomponent pharmacokinetics in rat plasma after i.v. safflower injection (SI)
# CONDITION_NOTES: male, Sprague-Dawley, rat, plasma, iv, 1 ml/kg
ENDPOINT_NAME: MRT inf (min)
Answers are plain numbers, in min.

Exam item: Endpoint output: MRT inf of "O=C(O)/C=C/c1ccc(O)cc1" . Value?
Marked response: 7.2

----------
# PROCEDURE_SUMMARY: Multicomponent pharmacokinetics in rat plasma after i.v. safflower injection (SI)
# CONDITION_NOTES: male, Sprague-Dawley, rat, in vivo, iv, 1 ml/kg
ENDPOINT_NAME: Cmax (ng/mL)
Give bare numbers, in ng/mL.

Exam item: So what's the measured Cmax for this one? "COc1cc(/C=C/CO)cc(OC)c1O[C@@H]1O[C@H](CO)[C@@H](O)[C@H](O)[C@H]1O"
Marked response: 260
